Origin of the recorded values: BindingDB's records for doi:10.1111/cbdd.12497

// Reverse transcriptase protein (Human immunodeficiency virus 1) IC50 records
Kindly answer with a numeric value in nM, unit omitted.

Find IC50 (Reverse transcriptase protein (Human immunodeficiency virus 1)) for the entry "Cc1cc(C#N)cc(C)c1Oc1nc(Nc2ccc(C#N)cc2)nc(N)c1Br" 89

Find IC50 (Reverse transcriptase protein (Human immunodeficiency virus 1)) for the entry "Cc1cc(C)cc(C(=O)c2cccnc2Oc2ccc(C#N)cc2)c1" 150000

Find IC50 (Reverse transcriptase protein (Human immunodeficiency virus 1)) for the entry "Cc1ccnc2c1NC(=O)c1cccnc1N2C1CC1" 580
